# Tested on: NCI-H23 complex spheroids with HUVEC/MSC, viability
# measurementDescription: Anticancer human tumor NCI-H23 cell line growth inhibition [RAS];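 further: spheroids exposed to compound for 7 days; 100% = DMSO vehicle control viability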
# conditionContext: second compound 0.000949 µM; first compound 0.003 µM; active compounds read low
# Source text: RAS pathway inhibitors in Combinations in Complex Spheroids A high-throughput screen of multi-cell type tumor spheroids was designed to identify active combinations of RAS pathway inhibitors and targeted small molecules. Complex spheroids include a stromal component modeled by human endothelial cells (HUVEC) and fibroblasts modeled by human mesenchymal stem cells (MSCs). […] Compounds. […] If the clinical Cmax for an agent had not been determined, the highest concentration tested was 10 microM. […]
readoutType: viability, T/C

Look up viability, T/C for this compound: CCc1c2c(nc3ccc(O)cc13)-c1cc3c(c(=O)n1C2)COC(=O)[C@]3(O)CC + CCn1c(-c2cccnc2C(C)OC)c2c3cc(ccc31)N1CCOC(CC(NC(=O)C(C(C)C)N(C)C(=O)C3(F)CCN(C(=O)C#CC(C)(C)N(C)C)CC3)C(=O)N3CCCC(N3)C(=O)OCC(C)(C)C2)C1
13.4%

Look up viability, T/C for this compound: CC1(C)CCC(Nc2ncc(C(F)(F)F)c(-c3c[nH]c4c(P(C)(C)=O)c(C#N)ccc34)n2)CN1 (centres undefined) + CCn1c(-c2cc(N3CCN(C)CC3)cnc2C(C)OC)c2c3cc(ccc31)-c1csc(n1)CC(NC(=O)C1CC1C)C(=O)N1CCCC(N1)C(=O)OCC(C)(C)C2
29.4%

Look up viability, T/C for this compound: CC1(C)CCC(Nc2ncc(C(F)(F)F)c(-c3c[nH]c4c(P(C)(C)=O)c(C#N)ccc34)n2)CN1 (centres undefined) + CCn1c(-c2cccnc2C(C)OC)c2c3cc(ccc31)N1CCOC(CC(NC(=O)C(C(C)C)N(C)C(=O)C3(F)CCN(C(=O)C#CC(C)(C)N(C)C)CC3)C(=O)N3CCCC(N3)C(=O)OCC(C)(C)C2)C1
21.2%

Look up viability, T/C for this compound: CCc1c2c(nc3ccc(O)cc13)-c1cc3c(c(=O)n1C2)COC(=O)[C@]3(O)CC + CCn1c(-c2cc(N3CCN(C)CC3)cnc2C(C)OC)c2c3cc(ccc31)-c1csc(n1)CC(NC(=O)C1CC1C)C(=O)N1CCCC(N1)C(=O)OCC(C)(C)C2
21%
